All figures here come from ChEMBL document CHEMBL1123561.

assay: Half-life period was determined at 20 degree Celsius at UV lambdamax nm of 258 (8500); format: ADME
test_readout: half-life (h)

>  <smiles_input>
N#[N+]c1cccc(C(=O)[O-])c1

>  <test_readout>
half-life

>  <endpoint_value>
1.33

$$$$
